Reference source for all entries: patent US20240300932A1

// reported melting point for each item listed

>  <COMPOUND>
O=C(COc1cc(N2C(=O)C3=C(CCCC3)C2=O)c(F)cc1Cl)c1ccccc1

>  <melting point>
124 to 131 °C

$$$$
>  <COMPOUND>
O=C(COc1cc(N2C(=O)C3=C(CCCC3)C2=O)c(F)cc1Cl)c1ccccc1F

>  <melting point>
141 to 143 °C

$$$$
>  <COMPOUND>
O=C(COc1cc(N2C(=O)C3=C(CCCC3)C2=O)c(F)cc1Cl)c1ccc(F)cc1F

>  <melting point>
158 to 160 °C

$$$$
>  <COMPOUND>
O=C(COc1cc(N2C(=O)C3=C(CCCC3)C2=O)c(F)cc1Cl)c1ccc(Br)cc1

>  <melting point>
183 to 185 °C

$$$$
>  <COMPOUND>
O=C1C2=C(CCCC2)C(=O)N1c1cc(OCc2ccc(F)cc2)c(Cl)cc1F

>  <melting point>
119 to 121 °C

$$$$
>  <COMPOUND>
O=C(COc1cc(N2C(=O)C3=C(CCCC3)C2=O)c(F)cc1Cl)c1ccc(Cl)cc1

>  <melting point>
148 to 150 °C

$$$$
>  <COMPOUND>
O=C(Nc1cc(N2C(=O)C3=C(CCCC3)C2=O)c(F)cc1Cl)C1CCCCC1

>  <melting point>
93 to 97 °C

$$$$
>  <COMPOUND>
O=C(COc1cc(N2C(=O)C3=C(CCCC3)C2=O)c(F)cc1Cl)c1cc(F)cc(F)c1

>  <melting point>
135 to 137 °C

$$$$
>  <COMPOUND>
O=C(COC(=O)c1cc(N2C(=O)C3=C(CCCC3)C2=O)c(F)cc1Cl)c1ccc(Cl)cc1 [Compound E1]

>  <melting point>
138 to 141 °C

$$$$
>  <COMPOUND>
O=C(Nc1cc(N2C(=O)C3=C(CCCC3)C2=O)c(F)cc1Cl)C1CC1

>  <melting point>
208 to 210 °C

$$$$
>  <COMPOUND>
O=C1C2=C(CCCC2)C(=O)N1c1cc(OCc2nnc(-c3cccc(Cl)c3)o2)c(Cl)cc1F

>  <melting point>
158 to 162 °C

$$$$
